# target-or-test-system: T1, CD3ε homodimer protein (human, UniProt P07766 23-126, limits assumed, sulfo-tag or biotin label in some ECL assays)
# T1 construct: also called human CD3ε homodimer protein; CD3 (CD3ε)
# T1 sequence (P07766 23-126 limits assumed): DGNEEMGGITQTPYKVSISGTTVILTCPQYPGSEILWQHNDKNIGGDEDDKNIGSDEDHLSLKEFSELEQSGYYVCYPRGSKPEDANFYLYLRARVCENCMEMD
# measurement-notes: SPR, CD3ε homodimer on chip;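 note: biacore SPR with antibody variants flowed as analyte over amine-coupled CD3ε homodimer on a CM chip, bound amount of each single-residue H chain variant over that of parent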
parameter: ratio of amounts bound vs CE115HA000
Output spec: single numeric token, no unit.

What the record says about CE115HA000 N31G (antibody, name in Kabat numbering, V domains shown) VH: QVQLVESGGGVVQPGRSLRLSCAASGFTFSGAWMHWVRQAPGKGLEWVAQIKAKSNNYATYYAESVKGRFTISRDDSKNSLYLQMNSLKTEDTAVYYCRYVHYGAYYGVDAWGQGTTVTVSS VL: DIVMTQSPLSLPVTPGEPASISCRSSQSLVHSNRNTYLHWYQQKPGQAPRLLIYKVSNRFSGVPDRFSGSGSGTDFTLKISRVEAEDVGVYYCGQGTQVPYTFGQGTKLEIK : ratio of amounts bound vs CE115HA000 is 0.39

The binder listed as CE115HA000 N53H (antibody, name in Kabat numbering, V domains shown) VH: QVQLVESGGGVVQPGRSLRLSCAASGFTFSNAWMHWVRQAPGKGLEWVAQIKAKSHNYATYYAESVKGRFTISRDDSKNSLYLQMNSLKTEDTAVYYCRYVHYGAYYGVDAWGQGTTVTVSS VL: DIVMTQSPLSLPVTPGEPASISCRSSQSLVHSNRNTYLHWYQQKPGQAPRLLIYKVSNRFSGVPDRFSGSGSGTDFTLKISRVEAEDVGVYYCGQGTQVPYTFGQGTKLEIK shows ratio of amounts bound vs CE115HA000 equal to 0.76
